System: Saccharomyces cerevisiae;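 further: PSI is a weighted mean of sequencing reads over stability bins, variants kept only with over 10 reads, mCherry proximal and sfGFP distal, peptide attached via GGGS linker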
measurementNotes: protein stability index of tFT-peptide fusion (C-terminal peptide) (PSI (0-1 scale)); higher = more stable (slower turnover)
experimentalSetup: genetic background: cdc34-1; temperature: 37 C
readoutLabel: protein stability index

{"macromoleculeSequence": "FGCCLYFCFWGL", "reported": 0.455}
{"macromoleculeSequence": "VCLFFFGYWCCL", "reported": 0.565}
{"macromoleculeSequence": "LRSVVFFCRTLL", "reported": 0.677}
{"macromoleculeSequence": "VVGFVFSCWWSW", "reported": 0.433}
{"macromoleculeSequence": "MSHVCICRRLML", "reported": 0.68}
{"macromoleculeSequence": "SVFCSLFLFLFY", "reported": 0.477}
{"macromoleculeSequence": "IPFRRCFWFFWV", "reported": 0.537}
{"macromoleculeSequence": "RSRCVRAAVKVG", "reported": 0.612}
{"macromoleculeSequence": "LLCRVSRTRILC", "reported": 0.478}
{"macromoleculeSequence": "CWLFCACFVRLV", "reported": 0.125}
{"macromoleculeSequence": "VFVRDFLVSIVV", "reported": 0.0474}
{"macromoleculeSequence": "RSRRNRYSRKIA", "reported": 0.506}
{"macromoleculeSequence": "SCIVRTLVPCPS", "reported": 0.377}
{"macromoleculeSequence": "PAPQAVRIFSLY", "reported": 0.62}
{"macromoleculeSequence": "LCTCFLVLLLWC", "reported": 0.387}
{"macromoleculeSequence": "RTSRPVRLFRIH", "reported": 0.753}
{"macromoleculeSequence": "FSPLVCLLFFLF", "reported": 0.492}
{"macromoleculeSequence": "ACLVAVWRWVFV", "reported": 0.276}
{"macromoleculeSequence": "GMMLLRFIIRWY", "reported": 0.0773}
{"macromoleculeSequence": "GVWSLDWFLLVW", "reported": 0.0785}
{"macromoleculeSequence": "NFVVYHVAIRVP", "reported": 0.073}
{"macromoleculeSequence": "SHPFIRSLVFLA", "reported": 0.43}
{"macromoleculeSequence": "FRRSFPFPLFLR", "reported": 0.105}
{"macromoleculeSequence": "WVWCVCVVVWCG", "reported": 0.111}
{"macromoleculeSequence": "TCVTLRYRLTFE", "reported": 0.638}
{"macromoleculeSequence": "VFCLPISAPPLH", "reported": 0.679}
{"macromoleculeSequence": "LLLLGVSLFLVR", "reported": 0.282}
{"macromoleculeSequence": "VSWSVSALIYLK", "reported": 0.169}
{"macromoleculeSequence": "VVRVIWCQFSCF", "reported": 0.494}
{"macromoleculeSequence": "LMLGARVSRRIH", "reported": 0.64}
{"macromoleculeSequence": "LQSVAFERGGPD", "reported": 0.687}
{"macromoleculeSequence": "KALFPGLLLCAF", "reported": 0.168}
{"macromoleculeSequence": "YPLISVSLPCPS", "reported": 0.533}
{"macromoleculeSequence": "QCKHIVRKIKLH", "reported": 0.426}
{"macromoleculeSequence": "VFLVGFRVTLDS", "reported": 0.267}
{"macromoleculeSequence": "LLISPFLFLLVC", "reported": 0.0704}
{"macromoleculeSequence": "CVLLRPGFLVLV", "reported": 0.177}
{"macromoleculeSequence": "WGVVMVCVVFGL", "reported": 0.116}
{"macromoleculeSequence": "FFCSLIISRFLL", "reported": 0.542}
{"macromoleculeSequence": "LVCLFFLSSLFF", "reported": 0.547}
{"macromoleculeSequence": "FFFFLVPVHCVI", "reported": 0.261}
{"macromoleculeSequence": "RPNTFRTRAKAL", "reported": 0.636}
{"macromoleculeSequence": "SLPIFSGVASVR", "reported": 0.677}
{"macromoleculeSequence": "EVTRMLRVVREI", "reported": 0.689}
{"macromoleculeSequence": "LFFASFLLIGPF", "reported": 0.409}
{"macromoleculeSequence": "AQLVYVITAVRT", "reported": 0.452}
{"macromoleculeSequence": "FSCRRISFFLLV", "reported": 0.525}
{"macromoleculeSequence": "CVARWPRPAGSS", "reported": 0.699}
{"macromoleculeSequence": "SRSVLLCFCWLC", "reported": 0.356}
{"macromoleculeSequence": "SHWSMQATLQLV", "reported": 0.617}
{"macromoleculeSequence": "CRRLCGWLFVCV", "reported": 0.466}
{"macromoleculeSequence": "TFLFPLPFLFFI", "reported": 0.0467}
{"macromoleculeSequence": "RGGVCFVVWCGG", "reported": 0.46}
{"macromoleculeSequence": "VGAGVFAWLWVA", "reported": 0.533}
{"macromoleculeSequence": "DISWVFVLLIFF", "reported": 0.333}
{"macromoleculeSequence": "VMLIRVSRGIKC", "reported": 0.359}
{"macromoleculeSequence": "FFFFSVHLSFLD", "reported": 0.122}
{"macromoleculeSequence": "IGLSIWSVVSAL", "reported": 0.652}
{"macromoleculeSequence": "IMWCSSVSEVQW", "reported": 0.538}
{"macromoleculeSequence": "PCFACIAFVLFP", "reported": 0.451}
{"macromoleculeSequence": "LVLGLYGVWLVV", "reported": 0.262}
{"macromoleculeSequence": "ISVSFSVIFFLL", "reported": 0.266}
{"macromoleculeSequence": "HSAIFLFFFFFG", "reported": 0.283}
{"macromoleculeSequence": "MLVLFCLCYILG", "reported": 0.246}
{"macromoleculeSequence": "PASYPPFIYLSI", "reported": 0.306}
{"macromoleculeSequence": "LIFFFCSWVFRF", "reported": 0.304}
{"macromoleculeSequence": "FSVRLCLFVWGC", "reported": 0.399}
{"macromoleculeSequence": "VFFMFVFFPFPG", "reported": 0.523}
{"macromoleculeSequence": "CLVSLPILLFFR", "reported": 0.0435}
{"macromoleculeSequence": "VFCMVLPFVLLT", "reported": 0.126}
{"macromoleculeSequence": "PSPPPPRPASPS", "reported": 0.7}
{"macromoleculeSequence": "KLLDHFVKIRVY", "reported": 0.164}
{"macromoleculeSequence": "RPIFAYRPLRFL", "reported": 0.656}
{"macromoleculeSequence": "ERFRLYFRPGIF", "reported": 0.635}
{"macromoleculeSequence": "LPASLSLWPLLC", "reported": 0.474}
{"macromoleculeSequence": "GLSLVCWIVVLG", "reported": 0.153}
{"macromoleculeSequence": "FFFLILFPLSYS", "reported": 0.452}
{"macromoleculeSequence": "YVWPKRRGLRVA", "reported": 0.611}
{"macromoleculeSequence": "DNTYRIDIKNKQ", "reported": 0.764}
{"macromoleculeSequence": "WLFTSVTVFTFL", "reported": 0.214}
{"macromoleculeSequence": "WLALSFFSFFFC", "reported": 0.654}
{"macromoleculeSequence": "CLVKIVIFFLFS", "reported": 0.22}
